Entries and their measured inhibition at 10 µM follow.
ASSAY TARGET: panel of 203 kinases (Homo sapiens)
Construct: purchased DiscoverX (KINOMEscan)
ASSAY TEXT: KINOMEscan competitive binding, whole panel
CONDITION SUMMARY: 10 µM, n=1; kinase ABL2; read-out: Percent inhibition ABL2
EXPERIMENTAL READOUT: inhibition at 10 µM (%)

>>> numeric_value("COc1cc(Nc2nccc(-c3sc(N)nc3-c3cccc(NC(=O)c4c(F)cccc4F)c3)n2)cc(OC)c1OC")
100
>>> numeric_value("COc1ccc(Nc2nccc(-c3cnn4ncccc34)n2)cc1")
92.5
>>> numeric_value("c1ccc(COc2cccc(-c3ccnc4[nH]ccc34)c2)cc1")
0
>>> numeric_value("CN1CCN(c2ccc(Nc3nccc(-c4cnn5ncccc45)n3)cc2C#N)CC1")
95
>>> numeric_value("Cc1ccc(O)cc1N(C)c1ccnc(Nc2cccc(S(N)(=O)=O)c2)n1")
100
>>> numeric_value("C[C@@H](Oc1cc(-c2cnc3ccccn23)sc1C(N)=O)c1ccccc1Cl")
0
>>> numeric_value("Clc1ccc(Nc2ncc(-c3ccccc3)s2)cc1")
0
>>> numeric_value("Cc1ccc(O)cc1Nc1ccnc(Nc2cccc(C(N)=O)c2)n1")
100
>>> numeric_value("Fc1cccc(COc2ccc(Nc3ncnc4c3CN(CCN3CCOCC3)CC4)cc2Cl)c1")
0
>>> numeric_value("Nc1ncc2c(-c3ccncc3)c[nH]c2n1")
0

###

ASSAY TARGET: SRC (Homo sapiens, UniProt P12931)
Construct: purchased DiscoverX (KINOMEscan)
Sequence (P12931 whole entry): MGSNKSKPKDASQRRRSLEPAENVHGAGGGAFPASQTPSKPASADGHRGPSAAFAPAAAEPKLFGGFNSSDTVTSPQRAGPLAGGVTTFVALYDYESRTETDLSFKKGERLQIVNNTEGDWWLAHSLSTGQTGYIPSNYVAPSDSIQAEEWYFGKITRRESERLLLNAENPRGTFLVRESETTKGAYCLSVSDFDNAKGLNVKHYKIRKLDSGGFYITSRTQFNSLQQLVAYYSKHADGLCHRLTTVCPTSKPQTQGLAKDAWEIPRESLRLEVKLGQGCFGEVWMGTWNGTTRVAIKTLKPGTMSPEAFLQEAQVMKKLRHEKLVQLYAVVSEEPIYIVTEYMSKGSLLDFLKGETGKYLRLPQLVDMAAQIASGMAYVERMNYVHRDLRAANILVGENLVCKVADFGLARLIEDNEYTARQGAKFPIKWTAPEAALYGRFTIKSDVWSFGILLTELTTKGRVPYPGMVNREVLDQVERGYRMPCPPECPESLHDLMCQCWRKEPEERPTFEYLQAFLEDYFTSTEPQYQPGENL
ASSAY TEXT: KINOMEscan competitive binding
CONDITION SUMMARY: n=1, read-out: Percent inhibition, SRC
EXPERIMENTAL READOUT: inhibition at 10 µM

>>> result("Fc1cccc(COc2ccc(Nc3ncnc4c3CN(CCN3CCOCC3)CC4)cc2Cl)c1")
"0%"
>>> result("Cc1ccc(O)cc1Nc1ccnc(Nc2cccc(C(N)=O)c2)n1")
"100%"
>>> result("CN1CCN(c2ccc(Nc3nccc(-c4cnn5ncccc45)n3)cc2C#N)CC1")
"99.2%"
>>> result("COc1cc(Nc2nccc(-c3sc(N)nc3-c3cccc(NC(=O)c4c(F)cccc4F)c3)n2)cc(OC)c1OC")
"100%"
>>> result("C[C@@H](Oc1cc(-c2cnc3ccccn23)sc1C(N)=O)c1ccccc1Cl")
"0%"
>>> result("Nc1ncc2c(-c3ccncc3)c[nH]c2n1")
"93.3%"
>>> result("c1ccc(COc2cccc(-c3ccnc4[nH]ccc34)c2)cc1")
"0%"
>>> result("COc1ccc(Nc2nccc(-c3cnn4ncccc34)n2)cc1")
"85%"
>>> result("Clc1ccc(Nc2ncc(-c3ccccc3)s2)cc1")
"0%"
>>> result("Cc1ccc(O)cc1N(C)c1ccnc(Nc2cccc(S(N)(=O)=O)c2)n1")
"100%"

###

ASSAY TARGET: panel of 203 kinases (Homo sapiens, UniProt Q13554)
Construct: purchased DiscoverX (KINOMEscan)
Sequence (Q13554 whole entry): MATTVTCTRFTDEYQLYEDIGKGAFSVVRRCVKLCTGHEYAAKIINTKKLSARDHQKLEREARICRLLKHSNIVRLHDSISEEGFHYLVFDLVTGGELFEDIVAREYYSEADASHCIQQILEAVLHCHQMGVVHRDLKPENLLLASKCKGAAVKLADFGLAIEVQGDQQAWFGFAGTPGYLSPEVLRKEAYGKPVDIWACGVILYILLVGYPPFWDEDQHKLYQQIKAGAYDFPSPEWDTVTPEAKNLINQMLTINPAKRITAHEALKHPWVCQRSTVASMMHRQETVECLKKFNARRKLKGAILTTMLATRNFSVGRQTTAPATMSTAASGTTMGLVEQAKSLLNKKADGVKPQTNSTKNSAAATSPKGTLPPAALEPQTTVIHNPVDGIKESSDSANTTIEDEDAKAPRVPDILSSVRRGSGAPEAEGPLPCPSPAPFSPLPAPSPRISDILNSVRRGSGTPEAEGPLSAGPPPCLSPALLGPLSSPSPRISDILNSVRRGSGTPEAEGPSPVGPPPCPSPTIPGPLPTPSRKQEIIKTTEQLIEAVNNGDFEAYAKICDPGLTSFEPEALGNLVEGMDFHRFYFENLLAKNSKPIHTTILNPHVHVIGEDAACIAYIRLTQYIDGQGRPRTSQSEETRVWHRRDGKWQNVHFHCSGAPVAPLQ
ASSAY TEXT: KINOMEscan competitive binding, whole panel
CONDITION SUMMARY: 10 µM, n=1; kinase CAMK2B; read-out: Percent inhibition CAMK2B
EXPERIMENTAL READOUT: inhibition at 10 µM (%)

>>> numeric_value("C[C@@H](Oc1cc(-c2cnc3ccccn23)sc1C(N)=O)c1ccccc1Cl")
0
>>> numeric_value("c1ccc(COc2cccc(-c3ccnc4[nH]ccc34)c2)cc1")
0
>>> numeric_value("Fc1cccc(COc2ccc(Nc3ncnc4c3CN(CCN3CCOCC3)CC4)cc2Cl)c1")
0
>>> numeric_value("COc1cc(Nc2nccc(-c3sc(N)nc3-c3cccc(NC(=O)c4c(F)cccc4F)c3)n2)cc(OC)c1OC")
0
>>> numeric_value("Nc1ncc2c(-c3ccncc3)c[nH]c2n1")
85.7
>>> numeric_value("Cc1ccc(O)cc1N(C)c1ccnc(Nc2cccc(S(N)(=O)=O)c2)n1")
0
>>> numeric_value("Clc1ccc(Nc2ncc(-c3ccccc3)s2)cc1")
0
>>> numeric_value("Cc1ccc(O)cc1Nc1ccnc(Nc2cccc(C(N)=O)c2)n1")
0
>>> numeric_value("COc1ccc(Nc2nccc(-c3cnn4ncccc34)n2)cc1")
73.9
>>> numeric_value("CN1CCN(c2ccc(Nc3nccc(-c4cnn5ncccc45)n3)cc2C#N)CC1")
96.5

###

ASSAY TARGET: PRKD2 (Homo sapiens, UniProt Q9BZL6)
Construct: purchased DiscoverX (KINOMEscan)
Sequence (Q9BZL6 1-878): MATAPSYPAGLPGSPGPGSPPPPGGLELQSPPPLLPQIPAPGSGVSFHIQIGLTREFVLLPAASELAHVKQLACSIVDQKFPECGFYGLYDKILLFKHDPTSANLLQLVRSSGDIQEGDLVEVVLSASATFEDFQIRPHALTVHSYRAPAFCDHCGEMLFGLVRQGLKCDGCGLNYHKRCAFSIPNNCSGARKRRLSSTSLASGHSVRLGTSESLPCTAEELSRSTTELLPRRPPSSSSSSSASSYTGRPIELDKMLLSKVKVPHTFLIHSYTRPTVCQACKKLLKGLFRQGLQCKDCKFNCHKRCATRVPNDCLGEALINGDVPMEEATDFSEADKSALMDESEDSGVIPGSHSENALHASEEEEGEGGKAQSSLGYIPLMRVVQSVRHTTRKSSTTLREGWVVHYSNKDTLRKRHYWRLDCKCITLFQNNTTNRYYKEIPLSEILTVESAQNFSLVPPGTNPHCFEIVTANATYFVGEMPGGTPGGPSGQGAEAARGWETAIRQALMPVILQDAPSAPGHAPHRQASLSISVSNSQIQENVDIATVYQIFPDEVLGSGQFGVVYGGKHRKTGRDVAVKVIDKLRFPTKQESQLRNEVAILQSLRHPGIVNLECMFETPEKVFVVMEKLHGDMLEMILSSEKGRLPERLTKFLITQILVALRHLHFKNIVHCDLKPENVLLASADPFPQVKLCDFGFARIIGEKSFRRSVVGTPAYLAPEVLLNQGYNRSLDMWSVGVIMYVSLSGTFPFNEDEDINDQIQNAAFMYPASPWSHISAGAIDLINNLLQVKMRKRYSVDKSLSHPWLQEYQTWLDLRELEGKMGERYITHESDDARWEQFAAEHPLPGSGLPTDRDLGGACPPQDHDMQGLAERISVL
ASSAY TEXT: KINOMEscan competitive binding
CONDITION SUMMARY: n=1, read-out: Percent inhibition, PRKD2
EXPERIMENTAL READOUT: inhibition at 10 µM (%)

>>> numeric_value("COc1cc(Nc2nccc(-c3sc(N)nc3-c3cccc(NC(=O)c4c(F)cccc4F)c3)n2)cc(OC)c1OC")
100
>>> numeric_value("Clc1ccc(Nc2ncc(-c3ccccc3)s2)cc1")
0
>>> numeric_value("c1ccc(COc2cccc(-c3ccnc4[nH]ccc34)c2)cc1")
0
>>> numeric_value("CN1CCN(c2ccc(Nc3nccc(-c4cnn5ncccc45)n3)cc2C#N)CC1")
0
>>> numeric_value("Fc1cccc(COc2ccc(Nc3ncnc4c3CN(CCN3CCOCC3)CC4)cc2Cl)c1")
0
>>> numeric_value("Nc1ncc2c(-c3ccncc3)c[nH]c2n1")
0
>>> numeric_value("Cc1ccc(O)cc1Nc1ccnc(Nc2cccc(C(N)=O)c2)n1")
87.1
>>> numeric_value("C[C@@H](Oc1cc(-c2cnc3ccccn23)sc1C(N)=O)c1ccccc1Cl")
0
>>> numeric_value("COc1ccc(Nc2nccc(-c3cnn4ncccc34)n2)cc1")
75.3
>>> numeric_value("Cc1ccc(O)cc1N(C)c1ccnc(Nc2cccc(S(N)(=O)=O)c2)n1")
96.6

###

ASSAY TARGET: panel of 203 kinases (Homo sapiens)
Construct: purchased DiscoverX (KINOMEscan)
Sequence (Q08881 1-620): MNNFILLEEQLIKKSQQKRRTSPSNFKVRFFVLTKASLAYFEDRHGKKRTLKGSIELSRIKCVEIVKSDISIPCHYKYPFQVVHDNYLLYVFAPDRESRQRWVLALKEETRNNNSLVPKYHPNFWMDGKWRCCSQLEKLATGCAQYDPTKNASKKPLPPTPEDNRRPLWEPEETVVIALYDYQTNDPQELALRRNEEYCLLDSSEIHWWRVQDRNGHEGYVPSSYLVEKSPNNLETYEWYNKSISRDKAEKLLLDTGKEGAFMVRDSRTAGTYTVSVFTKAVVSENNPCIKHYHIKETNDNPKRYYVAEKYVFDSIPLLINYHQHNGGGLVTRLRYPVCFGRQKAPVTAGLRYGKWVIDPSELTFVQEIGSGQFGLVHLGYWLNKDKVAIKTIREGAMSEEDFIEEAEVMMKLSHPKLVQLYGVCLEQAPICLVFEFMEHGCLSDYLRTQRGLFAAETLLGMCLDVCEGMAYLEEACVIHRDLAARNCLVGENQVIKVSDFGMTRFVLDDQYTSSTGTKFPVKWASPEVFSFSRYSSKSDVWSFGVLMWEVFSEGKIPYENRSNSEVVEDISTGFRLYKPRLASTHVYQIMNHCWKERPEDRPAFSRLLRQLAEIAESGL
ASSAY TEXT: KINOMEscan competitive binding, whole panel
CONDITION SUMMARY: 10 µM, n=1; kinase ITK; read-out: Percent inhibition ITK
Text: The kinases were expressed as fusions to T7 bacteriophage. This is a sensitive, competitive binding assay where test compounds were used to displace immobilized ATP-site binding probe ligands from kinases of interest. The amount of kinase that remained bound to the immobilized probe ligands on the solid support was quantified. Percentage inhibition data were was plotted on kinome trees using the web-based tool KinMap (http://www.kinhub.org/kinmap) ([60]).
EXPERIMENTAL READOUT: inhibition at 10 µM (%)

>>> numeric_value("Nc1ncc2c(-c3ccncc3)c[nH]c2n1")
73.2
>>> numeric_value("c1ccc(COc2cccc(-c3ccnc4[nH]ccc34)c2)cc1")
0
>>> numeric_value("COc1cc(Nc2nccc(-c3sc(N)nc3-c3cccc(NC(=O)c4c(F)cccc4F)c3)n2)cc(OC)c1OC")
0
>>> numeric_value("Cc1ccc(O)cc1N(C)c1ccnc(Nc2cccc(S(N)(=O)=O)c2)n1")
0
>>> numeric_value("Clc1ccc(Nc2ncc(-c3ccccc3)s2)cc1")
0
